Target: Axl (Homo sapiens, UniProt P30530)
Assay: Cellular Axl inhibition ELISA (p-Axl, Gas6-induced) using H1299 cells
Format: cell-based
Set-up: especially H1299 cell endogenously expresses Axl; endogenous in cells; host or cells: H1299
Conditions: read-out: Cellular Axl activity by H1299 Elisa (IC50)
pIC50: −log10 of the molar value.
# maps each entry to its pIC50

Here is how some compounds turned out for pIC50.
COc1cc2nccc(Oc3ccc(NC(=O)c4nn(CCN)cc4OCC(F)(F)F)c(F)c3)c2cc1OC [Compound 75] = > 6.30
CCn1cc(OC(C)C)c(C(=O)Nc2ccc(Oc3ccnc4cc(OC)c(OC)cc34)cn2)n1 [Compound 6] = > 6.30

For COc1cc2nccc(Oc3ccc(NC(=O)c4nn(CC5COC5)cc4OCC(F)(F)F)cc3C)c2cc1OC [Compound 99] the compound record lists pIC50 as > 6.30

----------
# maps each entry to its IC50
Molecular target: Axl (Homo sapiens, UniProt P30530)
Test: Cellular Axl inhibition ELISA (p-Axl, Gas6-induced) using H1299 cells
Format: cell-based
Set-up: especially H1299 cell endogenously expresses Axl; endogenous in cells; host or cells: H1299
Details: read-out: Cellular Axl activity by H1299 Elisa (IC50)

COc1cc2nccc(Oc3ccc(NC(=O)c4nn(CC5CCCC5)cc4OCC(F)(F)F)nc3)c2cc1OC [Compound 71] = < 500 nM
CCCn1cc(OCC(F)(F)F)c(C(=O)Nc2ccc(Oc3ccnc4cc(OC)c(OC)cc34)c(C)c2)n1 [Compound 26] = < 500 nM
COc1cc2nccc(Oc3ccc(NC(=O)c4nn(CC(C)C)cc4OCC(F)(F)F)cn3)c2cc1OC [Compound 103] = < 500 nM
COc1cc2nccc(Oc3ccc(NC(=O)c4nn(C)cc4OCC(F)(F)F)nn3)c2cc1OC [Compound 102] = ≥ 1000 nM
CNCCOc1cn(C2CC2)nc1C(=O)Nc1ccc(Oc2ccnc3cc(OC)c(OC)cc23)nn1 [Compound 160] = ≥ 1000 nM

For COc1cc2nccc(Oc3ccc(NC(=O)c4nn(CCOC5CC5)cc4OCC(F)(F)F)c(F)c3)c2cc1OC [Compound 115] the compound record lists IC50 as < 500 nM

For COCCn1cc(OCC(F)(F)F)c(C(=O)Nc2ccc(Oc3ccnc4cc(OC)c(OC)cc34)cc2F)n1 [Compound 49] the compound record lists IC50 as < 500 nM

----------
Target: Axl (Homo sapiens)
Sequence (P30530 26-894): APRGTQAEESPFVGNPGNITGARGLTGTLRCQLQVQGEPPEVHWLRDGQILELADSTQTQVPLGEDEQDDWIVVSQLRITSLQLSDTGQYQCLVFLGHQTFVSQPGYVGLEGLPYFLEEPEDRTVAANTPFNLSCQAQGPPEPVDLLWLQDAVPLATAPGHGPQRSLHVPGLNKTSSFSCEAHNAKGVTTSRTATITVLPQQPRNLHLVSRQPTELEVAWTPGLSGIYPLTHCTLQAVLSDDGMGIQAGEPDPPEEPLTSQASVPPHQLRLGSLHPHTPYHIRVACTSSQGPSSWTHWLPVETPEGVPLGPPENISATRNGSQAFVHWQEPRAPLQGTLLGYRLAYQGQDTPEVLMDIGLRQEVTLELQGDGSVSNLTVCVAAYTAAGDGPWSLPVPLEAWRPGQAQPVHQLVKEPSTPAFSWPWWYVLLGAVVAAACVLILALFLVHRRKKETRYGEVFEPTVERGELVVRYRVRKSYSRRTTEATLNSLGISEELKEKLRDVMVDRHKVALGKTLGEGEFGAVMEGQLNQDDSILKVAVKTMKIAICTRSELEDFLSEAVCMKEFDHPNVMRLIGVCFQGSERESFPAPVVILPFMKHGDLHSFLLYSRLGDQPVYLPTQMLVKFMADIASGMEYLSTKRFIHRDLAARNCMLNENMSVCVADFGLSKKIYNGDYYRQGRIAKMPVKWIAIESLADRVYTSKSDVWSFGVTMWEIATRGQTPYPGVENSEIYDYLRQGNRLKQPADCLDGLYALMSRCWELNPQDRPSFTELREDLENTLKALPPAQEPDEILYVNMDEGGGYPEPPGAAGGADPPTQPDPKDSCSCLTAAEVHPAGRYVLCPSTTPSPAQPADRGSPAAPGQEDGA
Assay: Cellular Axl inhibition ELISA (p-Axl, Gas6-induced) using H1299 cells
Assay type: cell-based
Design: especially H1299 cell endogenously expresses Axl; endogenous in cells; host or cells: H1299
Conditions: read-out: Cellular Axl activity by H1299 Elisa (IC50)
pIC50: −log10 of the molar value.
PARAMETER: pIC50

Here is how some compounds turned out for pIC50.
CCCn1cc(OCC(F)F)c(C(=O)Nc2ccc(Oc3ccnc4cc(OC)c(OC)cc34)cn2)n1 = > 6.30
CNCCn1cc(OCC(F)(F)F)c(C(=O)Nc2ccc(Oc3ccnc4cc(OC)c(OC)cc34)cc2F)n1 = 6.00 to 6.30
COc1cc2nccc(Oc3ccc(NC(=O)c4nn(CCO)cc4OCC(F)(F)F)nc3)c2cc1OC = > 6.30

Now take the following compound into account.
For COc1cc2nccc(Oc3ccc(NC(=O)c4nn(C5CCNC5)cc4OCC(F)(F)F)cc3)c2cc1OC (stereo not shown) the compound record lists pIC50 as > 6.30
